The values you see were collected from the Immune Epitope Database (IEDB).

Give measured pKd for each item. Keep answers brief.
molecular target: HLA-A*02:01; assay: IEDB peptide-MHC binding, purified MHC/direct/fluorescence; filed as Kd, often an IC50 or EC50 that approximates it; bounds were set here for any values at or beyond the usual limits of such assays; conditions: source organism: Giardia lamblia ATCC 50803
Convention used: pKd is expressed as -log10 of the molar concentration.

Given LTIVFVPEV , state its recorded pKd.
8.40

Name the reported pKd value associated with the sequence GMSLLEYGV
8.46

Form field: reported pKd of LMQDCAIKA
7.09

###

molecular target: HLA-A*23:01; experiment: IEDB peptide-MHC binding, purified MHC/competitive/radioactivity; filed as Kd, often an IC50 or EC50 that approximates it; bounds were set here for any values at or beyond the usual limits of such assays; settings: source organism: Lassa virus Josiah
endpoint: Kd

Could you tell me which Kd is on file for EGKDTPGGY ?
≥ 63.2 µM

###

molecular target: HLA-B*40:01; experiment: IEDB peptide-MHC binding, purified MHC/competitive/radioactivity; filed as Kd, often an IC50 or EC50 that approximates it; bounds were set here for any values at or beyond the usual limits of such assays; conditions: source organism: Mammarenavirus lassaense
endpoint: Kd

Record request: Kd value, item FEKHILPFMS
≥ 33.5 µM

###

target: HLA-B*27:03; experiment: IEDB peptide-MHC binding, purified MHC/competitive/fluorescence; filed as Kd, often an IC50 or EC50 that approximates it; bounds were set here for any values at or beyond the usual limits of such assays; conditions: source organism: Salmonella enterica subsp. enterica serovar Typhi str. CT18
endpoint: Kd

Which Kd value is on record for KSKPRIHGY ?
≥ 20 µM

###

molecular target: HLA-A*23:01; assay: IEDB peptide-MHC binding, purified MHC/competitive/fluorescence; filed as Kd, often an IC50 or EC50 that approximates it; bounds were set here for any values at or beyond the usual limits of such assays; settings: source organism: Giardia lamblia ATCC 50803
pKd: −log10 of the molar value.
endpoint: pKd

For the sequence shown here, DEYGPVFVE , give the reported pKd.
≤ 4.70

###

molecular target: HLA-B*48:01; experiment: IEDB peptide-MHC binding, purified MHC/direct/fluorescence; filed as Kd, often an IC50 or EC50 that approximates it; bounds were set here for any values at or beyond the usual limits of such assays; settings: source organism: Mammarenavirus juninense
endpoint: Kd

Requested read-out: Kd. Entry: QVKRREGMF
≥ 20 µM

###

target: HLA-B*27:05; assay: IEDB peptide-MHC binding, purified MHC/direct/fluorescence; filed as Kd, often an IC50 or EC50 that approximates it; bounds were set here for any values at or beyond the usual limits of such assays; conditions: source organism: Mycobacterium tuberculosis
pKd: −log10 of the molar value.
endpoint: pKd

Which measured pKd value corresponds to RPAGARAAF ?
≤ 4.70

So what's the measured pKd for this one? RPRLHSISF
≤ 4.70

Look at this sequence and give its reported pKd. FRWDYIPPT
6.48

###

target: HLA-A*11:01; assay: IEDB peptide-MHC binding, purified MHC/competitive/radioactivity; filed as Kd, often an IC50 or EC50 that approximates it; bounds were set here for any values at or beyond the usual limits of such assays; settings: source organism: Mammarenavirus brazilense
endpoint: Kd (µM)
Lab book: enter the figure in µM, no units written.

Please report the recorded Kd for KCFEKFLEPK .
16.9

###

target: HLA-B*07:02; test: IEDB peptide-MHC binding, purified MHC/direct/fluorescence; filed as Kd, often an IC50 or EC50 that approximates it; bounds were set here for any values at or beyond the usual limits of such assays; details: source organism: Human immunodeficiency virus 1
pKd: −log10 of the molar value.
endpoint: pKd

// map DPNPQEVVL to recorded pKd (system: HLA-B*07:02)
≤ 4.51

###

target: HLA-B*51:01; assay: IEDB peptide-MHC binding, purified MHC/direct/fluorescence; filed as Kd, often an IC50 or EC50 that approximates it; bounds were set here for any values at or beyond the usual limits of such assays; conditions: source organism: Streptococcus pneumoniae
endpoint: Kd (nM)
Respond numerically; units are nM and should not be typed.

Recall the recorded Kd for LANYAFFAI with HLA-B*51:01 and state it.
230

###

molecular target: HLA-B*45:06; experiment: IEDB peptide-MHC binding, purified MHC/competitive/fluorescence; filed as Kd, often an IC50 or EC50 that approximates it; bounds were set here for any values at or beyond the usual limits of such assays; conditions: source organism: Coxiella burnetii Dugway 5J108-111
endpoint: Kd

Quick check: Kd of MTFPVSLEY ?
≥ 5 µM

###

target: HLA-B*40:01; assay: IEDB peptide-MHC binding, purified MHC/direct/fluorescence; filed as Kd, often an IC50 or EC50 that approximates it; bounds were set here for any values at or beyond the usual limits of such assays; conditions: source organism: Cowpox virus
endpoint: pKd
Interpret pKd as the negative base-10 log of the concentration measured in mol/L.

So what's the measured pKd for this one? RHDITGFIL
6.29

###

target: HLA-A*30:01; assay: IEDB peptide-MHC binding, purified MHC/competitive/radioactivity; filed as Kd, often an IC50 or EC50 that approximates it; bounds were set here for any values at or beyond the usual limits of such assays; settings: source organism: Mammarenavirus brazilense
endpoint: Kd (nM)
# number only, unit nM dropped from output

So what's the measured Kd for this one? KCLNIMLGK
24.9

###

Would you mind telling me the reported pKd of each entry?
target: HLA-A*69:01; assay: IEDB peptide-MHC binding, purified MHC/direct/fluorescence; filed as Kd, often an IC50 or EC50 that approximates it; bounds were set here for any values at or beyond the usual limits of such assays; details: source organism: Vibrio parahaemolyticus
pKd: −log10 of the molar value.

// query pKd value for entry AFDWPELEF
≤ 4.70

What measured pKd goes with MLDQFGVSY ?
≤ 4.70

###

molecular target: HLA-A*24:03; assay: IEDB peptide-MHC binding, purified MHC/direct/fluorescence; filed as Kd, often an IC50 or EC50 that approximates it; bounds were set here for any values at or beyond the usual limits of such assays; settings: source organism: Squirrelpox virus
endpoint: Kd

Give its Kd value. Item: MACHRVLTY
≥ 20 µM

###

molecular target: HLA-A*11:01; assay: IEDB peptide-MHC binding, purified MHC/competitive/radioactivity; filed as Kd, often an IC50 or EC50 that approximates it; bounds were set here for any values at or beyond the usual limits of such assays; conditions: source organism: SARS coronavirus Tor2
Provide the reported Kd of each item.
Quick reminder: number only, in nM, skip the unit.

Which Kd reading was recorded for the sequence MLVYCFLGY ?
120

So what does the record say about Kd for LLLFADINGK ?
508

Given the sequence YLALYNKYK , what is its reported Kd?
1320

Field request: Kd | item: STGNYNYKYR
1380

Looking for the measured Kd of FLIGANYLGK , can you help?
543

Report Kd for VMCGGSLYVK please.
46.6

Would you kindly share the measured Kd for YSYATHHDK ?
30.5

Given the sequence QLLMPLKAPK , what is its reported Kd?
146

Need Kd of QTMLFTMLR , thanks.
1.81

Sample LQGPPGTGK — what was its Kd?
40.1

Fill in the blank: the reported Kd of RTELGVEFLK is ____.
52.4

Any idea what its Kd is? The sequence is GALHLYFDK
0.928

For STAWLCALGK , what is its reported Kd?
0.35

Returns the measured Kd for the input sequence. Input: ATAHSELAK
5.33

Which Kd value belongs to GVRFFFYTSK ?
44.6

###

target: HLA-B*15:01; assay: IEDB peptide-MHC binding, purified MHC/direct/fluorescence; filed as Kd, often an IC50 or EC50 that approximates it; bounds were set here for any values at or beyond the usual limits of such assays; conditions: source organism: Yellow fever virus 1899/81
pKd: −log10 of the molar value.
endpoint: pKd

Lab note: need pKd for RADEINAIL on HLA-B*15:01, anyone have it?
≤ 4.70

###

target: HLA-A*69:01; assay: IEDB peptide-MHC binding, purified MHC/direct/fluorescence; filed as Kd, often an IC50 or EC50 that approximates it; bounds were set here for any values at or beyond the usual limits of such assays; settings: source organism: Influenza A virus (A/Wisconsin/4755/1994(H1N1))
endpoint: Kd

State the recorded Kd for this entry: DPKKTGGPI
≥ 20 µM

###

molecular target: HLA-B*15:09; assay: IEDB peptide-MHC binding, purified MHC/direct/fluorescence; filed as Kd, often an IC50 or EC50 that approximates it; bounds were set here for any values at or beyond the usual limits of such assays; details: source organism: Rickettsia typhi str. Wilmington
endpoint: Kd

Any idea what Kd was measured for NIDPEHLDY ?
≥ 20 µM

###

biological target: HLA-B*27:05; test: IEDB peptide-MHC binding, purified MHC/direct/fluorescence; filed as Kd, often an IC50 or EC50 that approximates it; bounds were set here for any values at or beyond the usual limits of such assays; conditions: source organism: Pseudomonas aeruginosa
pKd: −log10 of the molar value.
endpoint: pKd

For the sequence shown here, ALEPGFKDY , give the reported pKd.
≤ 4.70
